- Test system: (D)-2-hydroxy-acid oxidase (enzyme of the present invention)
- test.method.notes: Oxidase reaction activity (H2O2 / 4-AA / TOOS / POD, absorbance at 555 nm), substrate specificity
- Assay type: biochemical, Arthrobacter sp. KNK-GA1 strain
- condition.context: Table 2; Substrate 10 mM, 30° C., 100 seconds
measurement.type: Relative activity (%)
Respond with a number, then the unit of measure.

Worked cases, answers included:
{"compound": "OCC(O)CO", "Relative activity (%)": "0%"}
{"compound": "O=C(O)CO", "Relative activity (%)": "100%"}
{"compound": "CC(C)O", "Relative activity (%)": "0%"}
{"compound": "CO", "Relative activity (%)": "0%"}
{"compound": "OCCO", "Relative activity (%)": "0%"}

Fill in Relative activity (%) for record O=C(O)C(O)CO (racemic)
54%

meta.source: patent US20050170481A1
